System: PA-1
Assay: Primary qHTS to identify gynecologic anti-cancer compounds using libraries of approved drugs and bioactive compounds (AID 1345084); also: nearly all actives have a fitted effect of over 55% in size
Conditions: Gynecologic cancer cell panel viability, ATPlite luminescence, 48 h; series mostly up to 57.5 µM
Excerpt: National Center for Advancing Translational Sciences [NCATS] Assay Overview: Chemotherapeutic drug responses vary from cancer to cancer and from patient to patient. […] ATPlite is a luminescence based assay reliant on the conversion of a luciferase substrate to light in the presence of ATP. As a cytotoxic compound will suppress growth and decrease the number of cells, the concentration of ATP will decrease, and less light signal will be detected in the well. […]
Results filed as inconclusive are left out. Activity calls are given as the source filed them. Calls follow the shape of the dose curve; as a rule, active = well fitted cell-killing curve with a large enough effect; inconclusive = small, poorly fitted or top-dose-only effect, or effect the other way; inactive = flat fitted curve, though single readings scatter.
Returns: one label drawn from active, inactive

Please review the entries below; each comes with its answer.
Cc1cc(NS(=O)(=O)c2ccc(N)cc2)nc(C)n1	inactive
C=C[C@H]1CN2CC[C@H]1C[C@@H]2[C@@H](O)c1ccnc2ccc(OC)cc12	inactive
COc1ccc(CCN(C)CCCN2CCc3cc(OC)c(OC)cc3CC2=O)cc1OC	inactive
CCOC(=O)[C@@](C)(N)Cc1ccc(O)c(O)c1	inactive
CC[C@]12CCCN3CCc4c(n(c5ccccc45)C(=O)C1)[C@@H]32	active

**Q:** Could you please tell me the result logged for Cc1cc2c(OCC(CNC(C)(C)C)OC(=O)c3ccccc3)cccc2[nH]1 (stereo not given) in this assay?
**A:** inactive

**Q:** Please do the same for `CCOC(=O)c1ccc(N)cc1` as well.
**A:** inactive

**Q:** Next record, please: `CCN(CC)CCNc1ccc(CO)c2sc3ccccc3c(=O)c12`
**A:** active

**Q:** Then `CO[C@]12C[C@@H](COC(=O)c3cncc(Br)c3)CN(C)[C@@H]1Cc1cn(C)c3cccc2c13` ?
**A:** inactive

**Q:** Follow-up item: `CC(=O)O[C@H]1C[C@@H]2CC[C@@H]3[C@H](CC[C@@]4(C)[C@H]3C[C@H]([N+]3(C)CCCCC3)[C@@H]4OC(C)=O)[C@@]2(C)C[C@@H]1N1CCCCC1`
**A:** inactive

###

Record form. Attribute: activity, negative = cell killing. Fill in for each entry.
test: Drug repurposing screens with cells derived from glioblastoma tumor samples (AID 1345199); conditions: GBM patient neurospheres viability, ATP luminescence, 48 h; at 45.9 µM (top of the series); tumour line D; also: % is scaled to controls: 0 for no effect and ±100 for the full control effect; nearly all actives have a fitted effect of over 40% in size
Inconclusive results are not listed.
Give bare numbers, in %.

Take a look at these entries with their results.
CCCCCCCCCCCCCCCC(=O)O	1.78
NS(=O)(=O)c1ccc(Cl)c(S(N)(=O)=O)c1	-11.1
CCOC(=O)[C@H](CCc1ccccc1)N[C@@H](C)C(=O)N1[C@H](C(=O)O)C[C@H]2CCCC[C@@H]21	2.82
CCN(CC)CCNC(=O)c1cc(Br)c(N)cc1OC	-11.8
N=C(N)N1CCc2ccccc2C1	0.46
Cc1cccc(C)c1NC(=O)CN1CCCC1	5.92
CC(=O)Nc1ccc(OC(=O)c2ccccc2OC(C)=O)cc1	-13.4
CCCCCN=C(N)N/N=C/c1c[nH]c2ccc(OC)cc12	8.03
NCCNc1cccc2ccccc12	-24.3
CC(=O)OC[C@H]1O[C@@H](n2ncc(=O)[nH]c2=O)[C@H](OC(C)=O)[C@@H]1OC(C)=O	-20.8

// each compound listed below needs its activity, negative = cell killing
1. N#C/C(=C1\SCC(c2ccccc2Cl)S1)n1ccnc1 (configuration not stated)
2. C=CCN1CCc2nc(N)sc2CC1

**A:**
1. -27.3
2. -19.4

###

tested on: CP237; test: qHTS profiling for inhibitors of Plasmodium falciparum proliferation (AID 504749); also: nearly all actives have a fitted effect of over 60% in size; conditions: P. falciparum in erythrocytes, SYBR Green DNA, 72 h; series mostly up to 28.7 µM
Inconclusive results are not listed. The source made the active and inactive calls. Calls come from the whole dose curve; as a rule, active = well fitted inhibition curve with a large enough effect; inconclusive = small, poorly fitted or top-dose-only effect; inactive = flat fitted curve, though single readings scatter.
The categories you may choose from are true (active), false (inactive)

CC(C)=CCOc1ccc(/C=C/C(=O)c2ccc(OCC=C(C)C)cc2OCC(=O)O)cc1	false
CN1CCN(C2=Nc3cc(F)ccc3Cc3ccccc32)CC1	true
CCN(CC)CCOC(=O)C1(c2ccccc2)CCCC1	true
NCc1ccccc1Sc1ccccc1CO	true
CCc1ccc(C(=O)C(C)CN2CCCCC2)cc1 (configuration not stated)	false
CCc1oc2ccccc2c1C(=O)c1cc(I)c(O)c(I)c1	false

Moving on to another molecule below.
**Q:** Query: recorded result category for `NC(=O)c1ccccc1O` in this test
**A:** false

###

assay: qHTS of pediatric cancer cell lines to identify multiple opportunities for drug repurposing: Primary screen for RD cells (AID 1347104); settings: RD rhabdomyosarcoma viability, CellTiter-Glo luminescence, 48 h; series mostly up to 46 µM; also: nearly all actives have a fitted effect of over 55% in size; also: potency is read from the fitted curve at half-maximal effect
Results filed as inconclusive are left out. The source made the active and inactive calls. The call rests on the fitted dose curve; in most records, active means well fitted cell-killing curve with a large enough effect; inconclusive means small, poorly fitted or top-dose-only effect; inactive means flat fitted curve, though single readings scatter.
Metric: Potency

Example compounds with recorded Potency:
Cc1ccc(-c2ncc(Cl)cc2-c2ccc(S(C)(=O)=O)cc2)cn1	inactive
c1ccc(CC2=NCCN2)cc1	inactive
CC(C)[N+](C)(C)CC(O)COc1cccc2ccccc12 (stereo not given)	inactive
NC1CCN(c2nc3c(cc2F)c(=O)c(C(=O)O)cn3-c2ccc(F)cc2F)C1 (stereo not given)	inactive
Nc1ccc(S(=O)(=O)NCc2ccccc2)cc1	inactive

Hey, can you go through the list below and give me Potency for every item?
1. CN(C)CCOC(=O)C(c1ccccc1)C1(O)CCCC1 (stereo not given)
2. O=C1c2cccc3c2[C@H](CCC3)CN1[C@@H]1CN2CCC1CC2
3. C#C[C@]1(O)CC[C@H]2[C@@H]3CCc4cc(OC)ccc4[C@H]3CC[C@@]21C
4. C[C@H]1O[C@@H](O[C@H]2CC[C@@]3(C)[C@H](CC[C@@H]4[C@@H]3C[C@@H](O)[C@]3(C)[C@@H](C5=CC(=O)OC5)CC[C@]43O)C2)C[C@H](O)[C@@H]1O[C@H]1C[C@H](O)[C@H](O[C@H]2C[C@H](O)[C@H](O[C@@H]3O[C@H](CO)[C@@H](O)[C@H](O)[C@H]3O)[C@@H](C)O2)[C@@H](C)O1
5. O=C(Nc1ccccc1)OCC(CN1CCCCC1)OC(=O)Nc1ccccc1 (stereo not given)
6. Cc1c(-c2ccccc2)oc2c(C(=O)OCCN3CCCCC3)cccc2c1=O
7. CC(=O)Nc1ccc(OC(=O)c2ccccc2OC(C)=O)cc1

**A:**
["inactive", "inactive", "inactive", "0.15 µM (active)", "29.9 µM (active)", "inactive", "inactive"]

###

test system: Tov-21-G; assay: Primary qHTS to identify gynecologic anti-cancer compounds using libraries of approved drugs and bioactive compounds (AID 1345084); conditions: Gynecologic cancer cell panel viability, ATPlite luminescence, 48 h; series mostly up to 57.5 µM; also: nearly all actives have a fitted effect of over 55% in size
Inconclusive results are not listed. Calls of active or inactive are those of the source. The call rests on the fitted dose curve; in most records, active means well fitted cell-killing curve with a large enough effect; inconclusive means small, poorly fitted or top-dose-only effect, or effect the other way; inactive means flat fitted curve, though single readings scatter.
Metric: outcome

Below, 5 molecules whose answers are already recorded.
O=C(O)CCNC(=O)c1ccccc1	inactive
CCc1ccc(C(=O)C(C)CN2CCCCC2)cc1 (stereo unspecified)	inactive
Cc1ccc(O)c([C@H](CCN(C(C)C)C(C)C)c2ccccc2)c1	inactive
COc1ccc(-c2cc(C(F)F)nn2-c2ccc(S(N)(=O)=O)cc2)cc1F	inactive
O=C(O)c1ccc(S(=O)(=O)N(Cl)Cl)cc1	inactive

Next molecule, outcome to be filled in.
**Q:** Quick one: outcome for C[N+]12CCC(CC1)C(OC(=O)C(O)(c1ccccc1)c1ccccc1)C2 (stereo unspecified) ?
**A:** inactive

###

experiment: S16 Schwann cell PMP22 intronic element beta-lactamase assay (AID 624044); details: S16 rat Schwann cells, PMP22 element beta-lactamase FRET, 24 h; series mostly up to 38.3 µM; also: nearly all actives have a fitted effect of over 15% in size
Results filed as inconclusive are left out. Calls of active or inactive are those of the source. The call rests on the fitted dose curve.
Response enum: True for active, False for inactive

Here are 5 compounds together with their reported answers.
CNCCCCOc1ccccc1Cc1ccccc1	False
CC(C)=CCOc1ccc(/C=C/C(=O)c2ccc(OCC=C(C)C)cc2OCC(=O)O)cc1	False
CCOC(=O)[C@H](CCc1ccccc1)N[C@@H](C)C(=O)N1[C@H](C(=O)O)C[C@H]2CCCC[C@@H]21	False
Cc1ccc(-c2ncc(Cl)cc2-c2ccc(S(C)(=O)=O)cc2)cn1	False
Nc1ccc(S(=O)(=O)Nc2cnc3ccccc3n2)cc1	False

**Q:** How did this test come out for `CC(=O)OC[C@H]1O[C@@H](n2ncc(=O)[nH]c2=O)[C@H](OC(C)=O)[C@@H]1OC(C)=O` ?
**A:** True

**Q:** Item: `CN(Cc1ccc(C(C)(C)C)cc1)Cc1cccc2ccccc12`
**A:** False

**Q:** One more compound: `NC(=O)C1(N2CCCCC2)CCN(CCCC(=O)c2ccc(F)cc2)CC1`
**A:** False

**Q:** Try this compound too: `N/C(=N\N=C\c1ccc(Cl)cc1)N/N=C/c1ccc(Cl)cc1`
**A:** False

**Q:** Okay, and `C#C[C@]1(O)CC[C@H]2[C@@H]3CCC4=CC(=O)CC[C@@H]4[C@H]3CC[C@@]21CC` ?
**A:** False
